Values were extracted from ChEMBL document CHEMBL1649099.

# assayedSystem: Lysosomal acid glucosylceramidase (Homo sapiens, UniProt P04062)
# Sequence (P04062 whole entry): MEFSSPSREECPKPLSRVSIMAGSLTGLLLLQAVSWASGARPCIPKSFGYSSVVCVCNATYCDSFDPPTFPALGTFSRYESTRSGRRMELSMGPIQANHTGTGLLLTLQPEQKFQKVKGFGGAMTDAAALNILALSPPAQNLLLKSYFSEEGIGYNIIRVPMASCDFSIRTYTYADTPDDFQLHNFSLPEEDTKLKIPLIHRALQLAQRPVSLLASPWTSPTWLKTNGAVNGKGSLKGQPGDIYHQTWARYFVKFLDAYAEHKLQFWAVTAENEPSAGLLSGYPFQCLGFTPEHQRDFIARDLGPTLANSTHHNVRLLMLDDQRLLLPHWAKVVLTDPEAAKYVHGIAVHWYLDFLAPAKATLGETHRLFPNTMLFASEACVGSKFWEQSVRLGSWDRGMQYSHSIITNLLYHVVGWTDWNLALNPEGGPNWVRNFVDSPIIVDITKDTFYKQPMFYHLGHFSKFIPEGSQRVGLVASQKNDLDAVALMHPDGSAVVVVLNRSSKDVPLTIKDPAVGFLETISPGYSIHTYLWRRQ
# protocolSummary: Inhibition of recombinant GBA1 preincubated with compound for 30 mins using 4-methylumbelliferyl-B-glucoside substrate by fluorimetric assay
pIC50: −log10 of the molar value.
measurementLabel: pIC50

P: CCCCCCCCN1C[C@H](O)[C@@H](O)[C@H](O)[C@H]1CO
Q: CCCCCCCCN1C[C@H](O)[C@@H](O)[C@H](O)[C@@H]1CO
Parameter check: reported pIC50 is higher for which label, P or Q ? When you have decided, please share the label of that item.
P

* * *

This document collects pIC50 values reported for Sucrase-isomaltase (Mus musculus, UniProt B5THE3).
pIC50: −log10 of the molar value.
measurementLabel: pIC50

Would you please look over these solved cases?
{"itemSmiles": "CCCCCCCCN1C[C@H](O)[C@@H](O)[C@H](O)[C@@H]1CO", "pIC50": 4.22}
{"itemSmiles": "CCCCCCCCOCCCCCN1C[C@H](O)[C@@H](O)[C@H](O)[C@H]1CO", "pIC50": 6.00}
{"itemSmiles": "CCCCCN1C[C@H](O)[C@@H](O)[C@H](O)[C@H]1CO", "pIC50": 5.70}
{"itemSmiles": "CCCCCCCCCN1C[C@H](O)[C@@H](O)[C@H](O)[C@H]1CO", "pIC50": 6.40}

a: CCCCCCCCN1C[C@H](O)[C@@H](O)[C@H](O)[C@H]1CO
b: CCCCOCCCCCN1C[C@H](O)[C@@H](O)[C@H](O)[C@H]1CO
Min pIC50? a | b When you have decided, please share the label of that item.
b

* * *

# assayedSystem: Beta-glucosidase (Homo sapiens)
# Sequence (Q9HCG7 whole entry): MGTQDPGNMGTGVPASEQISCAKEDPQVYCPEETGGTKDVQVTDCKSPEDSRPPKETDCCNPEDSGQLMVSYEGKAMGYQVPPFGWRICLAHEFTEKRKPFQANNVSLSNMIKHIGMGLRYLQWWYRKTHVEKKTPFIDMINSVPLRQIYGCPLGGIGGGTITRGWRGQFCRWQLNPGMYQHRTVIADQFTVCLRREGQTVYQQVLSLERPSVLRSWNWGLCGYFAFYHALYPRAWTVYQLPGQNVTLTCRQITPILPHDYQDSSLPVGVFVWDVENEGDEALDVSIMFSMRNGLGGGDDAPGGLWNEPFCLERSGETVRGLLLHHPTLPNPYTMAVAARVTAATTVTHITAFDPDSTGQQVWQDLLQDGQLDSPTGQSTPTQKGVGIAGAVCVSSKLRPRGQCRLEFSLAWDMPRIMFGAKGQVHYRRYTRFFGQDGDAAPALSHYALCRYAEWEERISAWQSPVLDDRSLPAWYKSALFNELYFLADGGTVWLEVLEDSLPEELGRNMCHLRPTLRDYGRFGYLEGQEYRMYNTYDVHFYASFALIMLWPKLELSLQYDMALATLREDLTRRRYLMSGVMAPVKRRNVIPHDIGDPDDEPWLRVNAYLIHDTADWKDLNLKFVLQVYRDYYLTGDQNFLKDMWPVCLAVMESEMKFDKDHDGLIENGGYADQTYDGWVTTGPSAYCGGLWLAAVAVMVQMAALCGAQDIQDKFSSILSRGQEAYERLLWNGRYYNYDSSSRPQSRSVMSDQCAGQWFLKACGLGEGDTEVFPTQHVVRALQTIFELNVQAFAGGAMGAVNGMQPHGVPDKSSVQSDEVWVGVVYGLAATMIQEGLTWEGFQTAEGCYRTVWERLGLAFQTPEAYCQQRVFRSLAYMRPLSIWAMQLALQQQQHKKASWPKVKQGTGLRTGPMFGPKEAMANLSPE
# protocolSummary: Inhibition of recombinant GBA2 preincubated with compound for 30 mins using 4-methylumbelliferyl-B-glucoside substrate by fluorimetric assay
pIC50: −log10 of the molar value.
measurementLabel: pIC50

Would you please look over these solved cases?
{"itemSmiles": "CCCCCCCCOCCCCCN1C[C@H](O)[C@@H](O)[C@H](O)[C@H]1CO", "measurementLabel": "pIC50", "experimentalResult": 8.00}
{"itemSmiles": "CCCCOCCCCCN1C[C@H](O)[C@@H](O)[C@H](O)[C@@H]1CO", "measurementLabel": "pIC50", "experimentalResult": 7.05}
{"itemSmiles": "CCCCCCCOCCCCCN1C[C@H](O)[C@@H](O)[C@H](O)[C@@H]1CO", "measurementLabel": "pIC50", "experimentalResult": 7.82}
{"itemSmiles": "CCCCCOCCCCCN1C[C@H](O)[C@@H](O)[C@H](O)[C@H]1CO", "measurementLabel": "pIC50", "experimentalResult": 7.40}
{"itemSmiles": "CCCCCCCCOCCCCCN1C[C@H](O)[C@@H](O)[C@H](O)[C@@H]1CO", "measurementLabel": "pIC50", "experimentalResult": 7.82}

P: CCCCOCCCCCN1C[C@H](O)[C@@H](O)[C@H](O)[C@H]1CO
Q: CCCCCCN1C[C@H](O)[C@@H](O)[C@H](O)[C@@H]1CO
R: CCCCCCCOCCCCCN1C[C@H](O)[C@@H](O)[C@H](O)[C@H]1CO
Sort ascending by pIC50. Please express your ranking as an ordered list of the labels.
Q, P, R

A: CCCCCN1C[C@H](O)[C@@H](O)[C@H](O)[C@H]1CO
B: CCCCCCCCN1C[C@H](O)[C@@H](O)[C@H](O)[C@@H]1CO
C: CCCCCCCN1C[C@H](O)[C@@H](O)[C@H](O)[C@H]1CO
D: CCCCCCN1C[C@H](O)[C@@H](O)[C@H](O)[C@H]1CO
Sort ascending by pIC50. Please express your ranking as an ordered list of the labels.
A, D, C, B

I: CCCCCCCN1C[C@H](O)[C@@H](O)[C@H](O)[C@@H]1CO
II: CCCCCN1C[C@H](O)[C@@H](O)[C@H](O)[C@@H]1CO
Parameter check: reported pIC50 is higher for which label, I or II ? When you have decided, please share the label of that item.
I
(I: 7.40, II: 6.60)

* * *

# assayedSystem: Ceramide glucosyltransferase (Mus musculus, UniProt O88693)
# Sequence (O88693 whole entry): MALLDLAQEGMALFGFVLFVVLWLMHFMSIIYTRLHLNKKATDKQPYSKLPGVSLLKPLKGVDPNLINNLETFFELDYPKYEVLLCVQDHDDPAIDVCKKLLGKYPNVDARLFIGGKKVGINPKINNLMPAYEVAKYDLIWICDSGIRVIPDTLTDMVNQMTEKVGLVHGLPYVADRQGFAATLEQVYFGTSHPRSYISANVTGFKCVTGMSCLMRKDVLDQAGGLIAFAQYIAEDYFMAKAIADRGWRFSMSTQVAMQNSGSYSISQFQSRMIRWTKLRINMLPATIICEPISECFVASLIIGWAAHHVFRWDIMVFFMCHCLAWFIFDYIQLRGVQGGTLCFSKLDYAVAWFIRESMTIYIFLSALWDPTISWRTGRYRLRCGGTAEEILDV
# protocolSummary: Inhibition of glucosylceramide synthase in mouse RAW cells preincubated with compound for 15 mins by in-situ enzyme inhibition assay
measurementLabel: IC50 (nM)

Would you please look over these solved cases?
{"itemSmiles": "CCCCCCCN1C[C@H](O)[C@@H](O)[C@H](O)[C@@H]1CO", "endpointUnit": "nM", "IC50": 4000}
{"itemSmiles": "CCCCCCCN1C[C@H](O)[C@@H](O)[C@H](O)[C@H]1CO", "endpointUnit": "nM", "IC50": 40000}
{"itemSmiles": "CCCCCN1C[C@H](O)[C@@H](O)[C@H](O)[C@@H]1CO", "endpointUnit": "nM", "IC50": 15000}
{"itemSmiles": "CCCCCCCCCOCCCCCN1C[C@H](O)[C@@H](O)[C@H](O)[C@H]1CO", "endpointUnit": "nM", "IC50": 100}
{"itemSmiles": "CCCCCOCCCCCN1C[C@H](O)[C@@H](O)[C@H](O)[C@H]1CO", "endpointUnit": "nM", "IC50": 2000}
{"itemSmiles": "CCCCCOCCCCCN1C[C@H](O)[C@@H](O)[C@H](O)[C@@H]1CO", "endpointUnit": "nM", "IC50": 150}

a: CCCCCCCCOCCCCCN1C[C@H](O)[C@@H](O)[C@H](O)[C@H]1CO
b: CCCCCCOCCCCCN1C[C@H](O)[C@@H](O)[C@H](O)[C@@H]1CO
Min IC50? a | b When you have decided, please share the label of that item.
b
(b: 100 nM, a: 200 nM)

* * *

# assayedSystem: UniProt P04062
# protocolSummary: Inhibition of recombinant GBA1 preincubated with compound for 30 mins using 4-methylumbelliferyl-B-glucoside substrate by fluorimetric assay
pIC50: −log10 of the molar value.
measurementLabel: pIC50

Would you please look over these solved cases?
{"itemSmiles": "CCCCCCN1C[C@H](O)[C@@H](O)[C@H](O)[C@H]1CO", "experimentalResult": 4.10}
{"itemSmiles": "CCCCCN1C[C@H](O)[C@@H](O)[C@H](O)[C@H]1CO", "experimentalResult": 3.30}
{"itemSmiles": "CCCCCCCOCCCCCN1C[C@H](O)[C@@H](O)[C@H](O)[C@H]1CO", "experimentalResult": 5.76}
{"itemSmiles": "CCCCOCCCCCN1C[C@H](O)[C@@H](O)[C@H](O)[C@H]1CO", "experimentalResult": 4.52}
{"itemSmiles": "CCCCCCCN1C[C@H](O)[C@@H](O)[C@H](O)[C@@H]1CO", "experimentalResult": 3.15}

A: CCCCCCCN1C[C@H](O)[C@@H](O)[C@H](O)[C@H]1CO
B: CCCCCCCOCCCCCN1C[C@H](O)[C@@H](O)[C@H](O)[C@@H]1CO
C: CCCCCOCCCCCN1C[C@H](O)[C@@H](O)[C@H](O)[C@H]1CO
D: CCCCCOCCCCCN1C[C@H](O)[C@@H](O)[C@H](O)[C@@H]1CO
E: CCCCCCCCOCCCCCN1C[C@H](O)[C@@H](O)[C@H](O)[C@H]1CO
Sort ascending by pIC50. Please express your ranking as an ordered list of the labels.
C, D, B, A, E
(C: 3.15, D: 4.00, B: 4.40, A: 4.73, E: 6.30)
